Target: XIAP His-BIR2 (124-240/C202A/C213G) (Homo sapiens, UniProt P98170, C202A/C213G)
Construct: additions of His-BIR2 (124-240/C202A/C213G), Biotinylated SMAC peptide
Sequence (P98170 124-240 C202A/C213G): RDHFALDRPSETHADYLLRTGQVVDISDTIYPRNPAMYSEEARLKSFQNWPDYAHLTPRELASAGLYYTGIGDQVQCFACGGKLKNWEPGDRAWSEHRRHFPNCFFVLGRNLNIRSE
Experiment: XIAP-BIR2/SMAC Peptide AlphaScreen Assay
Type: binding
Details: XIAP BIR2, Alphascreen, Table 4; read-out: BIR2 Alpha Screen IC50
MEASURED PARAMETER: IC50

Check out these entries, answers already filled in.
# CHEMICAL SMILES, TEST RESULT
records = [
    ("CN[C@@H](C)C(=O)N[C@H](C(=O)N1C[C@@H]2C[C@H]1C(=O)N[C@@H](Cc1ccc3ccccc3c1)C(=O)N[C@H](C(=O)NS(=O)(=O)C1CC1)Cc1ccc(cc1)OCc1cn(nn1)[C@H]1C[C@@H](C(=O)N[C@@H](Cc3ccc4ccccc4c3)C(=O)N[C@H](C(=O)NS(=O)(=O)C3CC3)Cc3ccc(cc3)OCc3cn2nn3)N(C(=O)[C@@H](NC(=O)[C@H](C)NC)C(C)(C)C)C1)C(C)(C)C", "< 2000 nM"),
    ("CN[C@@H](C)C(=O)N[C@H](C(=O)N1C[C@@H]2C[C@H]1C(=O)N[C@@H](Cc1ccc3ccccc3c1)C(=O)N[C@H](C(=O)NS(=O)(=O)C(F)(F)F)Cc1ccc(cc1)OCc1cn(nn1)[C@H]1C[C@@H](C(=O)N[C@@H](Cc3ccc4ccccc4c3)C(=O)N[C@H](C(=O)NS(=O)(=O)C(F)(F)F)Cc3ccc(cc3)OCc3cn2nn3)N(C(=O)[C@@H](NC(=O)[C@H](C)NC)C(C)(C)C)C1)C(C)(C)C", "2000 to 12000 nM"),
]

Next compound, IC50 to be filled in.
Give its IC50 value. Item: CN[C@@H](C)C(=O)N[C@H](C(=O)N1C[C@@H]2C[C@H]1C(=O)N[C@@H](Cc1ccc3ccccc3c1)C(=O)N[C@H](C(=O)NS(C)(=O)=O)Cc1ccc(cc1)OCc1cn(nn1)[C@H]1C[C@@H](C(=O)N[C@@H](Cc3ccc4ccccc4c3)C(=O)N[C@H](C(=O)NS(C)(=O)=O)Cc3ccc(cc3)OCc3cn2nn3)N(C(=O)[C@@H](NC(=O)[C@H](C)NC)C(C)(C)C)C1)C(C)(C)C < 2000 nM

====

Target: XIAP His-BIR2 (124-240/C202A/C213G) (Homo sapiens, UniProt P98170, C202A/C213G)
Construct: additions of His-BIR2 (124-240/C202A/C213G), Biotinylated SMAC peptide
Experiment: XIAP-BIR2/SMAC Peptide AlphaScreen Assay
Format: binding
Conditions: XIAP BIR2, Alphascreen, Table 4; read-out: BIR2 Alpha Screen IC50
MEASURED PARAMETER: IC50

Give its IC50 value. Item: CN[C@@H](C)C(=O)N[C@H](C(=O)N1C[C@@H]2C[C@H]1C(=O)N[C@@H](Cc1ccccc1)C(=O)N[C@H](C(=O)O)Cc1ccc(cc1)OCc1cn(nn1)[C@H]1C[C@@H](C(=O)N[C@@H](Cc3ccc4ccccc4c3)C(=O)N[C@H](C(=O)O)Cc3ccc(cc3)OCc3cn2nn3)N(C(=O)[C@@H](NC(=O)[C@H](C)NC)C(C)(C)C)C1)C(C)(C)C [Compound 149] < 2000 nM
